These records show pKi for 5-hydroxytryptamine receptor 6 (Rattus norvegicus).
pKi: −log10 of the molar value.

# compound, pKi
rows = [
    ("Cc1cccc(N2CCN(CCCOc3ccc4ccc(=O)[nH]c4c3)CC2)c1C [NSC_163839]", 6.17),
    ("O=C1CCc2ccc(OCCCCN3CCN(c4cccc(Cl)c4Cl)CC3)cc2N1", 6.79),
]

###

These records show Ki for D(1B) dopamine receptor (Rattus norvegicus, UniProt P25115).

# compound, target-system, Ki
data = [
    ("Cc1cccc(N2CCN(CCCOc3ccc4ccc(=O)[nH]c4c3)CC2)c1C [NSC_163839]", "D(1B) dopamine receptor (Rattus norvegicus, UniProt P25115)", "> 10 µM"),
    ("Cc1c(O)ccc(N2CCN(CCCCOc3ccc4c(c3)NC(=O)CC4)CC2)c1C", "D(1B) dopamine receptor (Rattus norvegicus, UniProt P25115)", "> 10 µM"),
]
